The measured values listed here are drawn from the supplement of paper PMC8728848.

- target or system: GlcNAc(b1-4)[GlcNAc(b1-6)]GalNAc
- experimental protocol: glycan array binding signal (z-score within array); higher = stronger binding
- condition notes: glycan notation: IUPAC condensed, linker removed
Many of the other results were omitted from the sample, so the strongest signals are more common in it than they were.
experimental readout: glycan array binding signal (z-score)
Please give only the number in your answer, with no unit.

[Q] Please look up its glycan array binding signal (z-score): OS9 (Arabidopsis thaliana) (protein) MRGSHHHHHHGMASMTGGQQMGRDLYDDDDKSRLQIFPAHLVGTFSRNNREPKYKIEFLPEDSPFHPGDNLESMVMLDKHGNRFLCYLPKEEKATSGWTSSQQNISTVMMETQQLVKLKTPDELLQPLSEKCLFRQEGWWSYEFCHQKYVRQLHVEDENKIVQEFFLGTFDPEATAAFNQTVSDASTDASQRYHSHVYTNGTTCDLTGSPREVEVRFVCAETRAMVTSITELSTCKYALTVQCPTLCKHPLFQLEKPVSHTIHCNAIPVEEDATRNKEEQAVDESPKMIADS
[A] -0.3
